# MEASURED TARGET: Tyrosine-protein kinase JAK3 (Homo sapiens) (UniProt P52333)
# Sequence (whole entry): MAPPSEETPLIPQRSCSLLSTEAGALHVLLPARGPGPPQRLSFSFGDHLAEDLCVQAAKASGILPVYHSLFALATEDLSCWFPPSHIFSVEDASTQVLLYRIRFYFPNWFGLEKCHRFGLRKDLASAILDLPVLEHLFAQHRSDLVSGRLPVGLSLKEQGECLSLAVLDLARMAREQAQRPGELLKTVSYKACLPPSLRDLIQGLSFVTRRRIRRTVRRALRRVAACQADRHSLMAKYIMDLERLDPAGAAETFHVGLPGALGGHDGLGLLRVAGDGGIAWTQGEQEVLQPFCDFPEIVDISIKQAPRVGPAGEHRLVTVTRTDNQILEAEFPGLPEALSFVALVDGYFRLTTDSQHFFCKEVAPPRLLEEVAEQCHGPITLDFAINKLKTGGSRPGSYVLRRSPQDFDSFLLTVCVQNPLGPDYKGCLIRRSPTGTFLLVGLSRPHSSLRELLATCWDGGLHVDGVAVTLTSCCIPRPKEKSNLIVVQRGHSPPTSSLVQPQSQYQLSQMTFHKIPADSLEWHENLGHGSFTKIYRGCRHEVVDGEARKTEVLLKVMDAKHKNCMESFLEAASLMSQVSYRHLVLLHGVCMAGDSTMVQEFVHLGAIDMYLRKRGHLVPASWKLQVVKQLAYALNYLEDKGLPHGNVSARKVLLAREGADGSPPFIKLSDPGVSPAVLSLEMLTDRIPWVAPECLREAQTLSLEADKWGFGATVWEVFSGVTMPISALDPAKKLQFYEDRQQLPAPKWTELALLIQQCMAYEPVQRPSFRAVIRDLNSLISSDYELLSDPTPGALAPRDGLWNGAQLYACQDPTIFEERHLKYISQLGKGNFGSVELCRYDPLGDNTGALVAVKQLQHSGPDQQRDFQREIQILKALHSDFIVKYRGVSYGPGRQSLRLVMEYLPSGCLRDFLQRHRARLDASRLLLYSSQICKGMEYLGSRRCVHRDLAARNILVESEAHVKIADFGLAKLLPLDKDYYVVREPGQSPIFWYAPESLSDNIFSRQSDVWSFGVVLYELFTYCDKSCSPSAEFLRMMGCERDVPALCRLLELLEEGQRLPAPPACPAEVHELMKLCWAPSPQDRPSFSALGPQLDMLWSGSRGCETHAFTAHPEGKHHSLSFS
# METHOD SUMMARY: Induction of JAK3 degradation in human Jurkat cells at 1 uM incubated for 6 hrs by Western blot analysis
# Type: cell-based
The source made the active and inactive calls. The calls are words filed in the database; no cut-off is given here.
Outcomes: YES (active), NO (inactive)

{"columns": ["SMILES STRING", "MEASURED TARGET", "GROUP"],
 "data": [
  ["CNC(=O)c1cnc(Nc2ccc(C(=O)NCCCCCCCCCCC(=O)N[C@H](C(=O)N3C[C@H](O)C[C@H]3C(=O)NCc3ccc(-c4scnc4C)cc3)C(C)(C)C)cn2)cc1Nc1cccc(C(=O)NC)c1OC", "Tyrosine-protein kinase JAK3 (Homo sapiens) (UniProt P52333)", "NO"],
  ["CNC(=O)c1cnc(Nc2ccc(C(=O)NCCCCCCCCC(=O)N[C@H](C(=O)N3C[C@H](O)C[C@H]3C(=O)NCc3ccc(-c4scnc4C)cc3)C(C)(C)C)cn2)cc1Nc1cccc(C(=O)NC)c1OC", "Tyrosine-protein kinase JAK3 (Homo sapiens) (UniProt P52333)", "NO"],
  ["CNC(=O)c1cnc(Nc2ccc(C(=O)NCCCCCCCCCCCC(=O)N[C@H](C(=O)N3C[C@H](O)C[C@H]3C(=O)NCc3ccc(-c4scnc4C)cc3)C(C)(C)C)cn2)cc1Nc1cccc(C(=O)NC)c1OC", "Tyrosine-protein kinase JAK3 (Homo sapiens) (UniProt P52333)", "NO"],
  ["CNC(=O)c1cnc(Nc2ccc(C(=O)NCCCCCCCCCC(=O)N[C@H](C(=O)N3C[C@H](O)C[C@H]3C(=O)NCc3ccc(-c4scnc4C)cc3)C(C)(C)C)cn2)cc1Nc1cccc(C(=O)NC)c1OC", "Tyrosine-protein kinase JAK3 (Homo sapiens) (UniProt P52333)", "NO"],
  ["CNC(=O)c1cnc(Nc2ccc(C(=O)NCCCCCC(=O)N[C@H](C(=O)N3C[C@H](O)C[C@H]3C(=O)NCc3ccc(-c4scnc4C)cc3)C(C)(C)C)cn2)cc1Nc1cccc(C(=O)NC)c1OC", "Tyrosine-protein kinase JAK3 (Homo sapiens) (UniProt P52333)", "NO"],
  ["CNC(=O)c1cnc(Nc2ccc(C(=O)NCCCC(=O)N[C@H](C(=O)N3C[C@H](O)C[C@H]3C(=O)NCc3ccc(-c4scnc4C)cc3)C(C)(C)C)cn2)cc1Nc1cccc(C(=O)NC)c1OC", "Tyrosine-protein kinase JAK3 (Homo sapiens) (UniProt P52333)", "YES"],
  ["CNC(=O)c1cnc(Nc2ccc(C(=O)NCCCCCCCC(=O)N[C@H](C(=O)N3C[C@H](O)C[C@H]3C(=O)NCc3ccc(-c4scnc4C)cc3)C(C)(C)C)cn2)cc1Nc1cccc(C(=O)NC)c1OC", "Tyrosine-protein kinase JAK3 (Homo sapiens) (UniProt P52333)", "NO"]
]}
